- target_of_assay: T1, recombinant human CLL-1 extracellular domain (ECD, amino acids 65-265) fused to an N-terminal Flag (human, UniProt Q5QGZ9 65-265)
- T1 construct: The construct and the K244Q SNP are stated for the immunogen; they are not written as a piece; also called huCLL-1-Flag; huCLL-1
- T1 chain: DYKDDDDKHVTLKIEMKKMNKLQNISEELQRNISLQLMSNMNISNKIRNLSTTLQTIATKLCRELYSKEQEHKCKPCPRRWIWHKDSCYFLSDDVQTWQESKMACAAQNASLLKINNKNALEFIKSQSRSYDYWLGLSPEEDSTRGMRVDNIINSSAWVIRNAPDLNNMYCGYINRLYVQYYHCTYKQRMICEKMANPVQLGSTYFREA
- protocol_description: SPR (Biacore T200), IgG captured by anti-human Fc, CLL-1 as analyte
measured_quantity: koff (s⁻¹)

binder="21C9.L2H3E54 (antibody, V domains shown) VH: EVQLVQSGAEVKKPGASVKVSCKASGYTFTDYYLDWVRQAPGQGLEWIGRVNPYEGGTIYNQKFKGRVTLTRDTSTSTAYLELSSLRSEDTAVYYCARDHYRYDPLLDYWGQGTLVTVSS VL: DIQMTQSPSSLSASVGDRVTITCKASQDVSTAVAWFQQKPGKAPKLLIYSPSYRYTGVPSRFSGSGSGTDFTLTISSLQPEDFATYYCQQLYSTPYTFGQGTKVEIK" measured_quantity=koff observed_measurement=0.0882
binder="6E7.L4H1eS54 (antibody, V domains shown, IgG) VH: EVQLVQSGAEVKKPGASVKVSCKASGYSFTDYYMHWVRQAPGQGLEWIGRINPYSGAAFYSQNFKDRVTLTVDTSTSTAYLELSSLRSEDTAVYYCAIERGADLEGYAMDYWGQGTLVTVSS VL: DIQMTQSPSSLSASVGDRVTITCRASQSVSTSSYNYMHWYQQKPGKPPKLLIKYASNLESGVPSRFSGSGSGTDFTLTISSLQPEDFATYYCQHSWEIPLTFGQGTKVEIK" measured_quantity=koff observed_measurement=0.0072
binder="6E7.L4H1eD54 (antibody, V domains shown, IgG; also called h6E7D; H6E7.L4H1D54) VH: EVQLVQSGAEVKKPGASVKVSCKASGYSFTDYYMHWVRQAPGQGLEWIGRINPYDGAAFYSQNFKDRVTLTVDTSTSTAYLELSSLRSEDTAVYYCAIERGADLEGYAMDYWGQGTLVTVSS VL: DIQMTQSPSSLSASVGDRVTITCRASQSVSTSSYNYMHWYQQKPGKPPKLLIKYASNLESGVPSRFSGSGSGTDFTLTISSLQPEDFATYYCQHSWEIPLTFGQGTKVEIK" measured_quantity=koff observed_measurement=0.0344
